Tested on: Lemna minor
test.protocol: Herbicide activity on Lemna minor in vitro, fresh weight reduction (Example 5)
Type: in vivo
condition.label: all chemicals at 10 mg/L; 7-day exposure
Experimental: The experiment was carried out in Lemna minor growing in vitro conditions. Lemna minor (duckweed) was bought in the local market. A stock culture was maintained on modified Hoagland medium in a controlled environment. […] For the experiments, fronds free from any visible chlorosis were taken from the stock cultures and exposed to the appropriate treatment. […] All chemicals were evaluated at the same concentration (10 mg/L). […]
So I've got a bunch of molecules here, and I need their Herbicide activity (fresh weight reduction compared to untreated plants) values.
In your answer, state the number alone without any accompanying words.

Prompt: Can you look up the measured Herbicide activity (fresh weight reduction compared to untreated plants) of CCOC1Oc2ccc(OS(C)(=O)=O)cc2C1(C)C (stereo not shown) [Ethofumesate] for me?
Completion: 0

Prompt: Can you look up the measured Herbicide activity (fresh weight reduction compared to untreated plants) of COC(=O)Nc1cccc(OC(=O)Nc2cccc(C)c2)c1 for me?
Completion: 3

Prompt: Can you look up the measured Herbicide activity (fresh weight reduction compared to untreated plants) of CCCC(=NOCC(C)Oc1ccc(Cl)cc1)C1=C(O)CC(C2CCCSC2)CC1=O (stereo not shown) for me?
Completion: 45

Prompt: Can you look up the measured Herbicide activity (fresh weight reduction compared to untreated plants) of COC(=O)c1cccc(C)c1S(=O)(=O)NC(=O)Nc1nc(OCC(F)(F)F)nc(N(C)C)n1 for me?
Completion: 34
